Each entry below lists one item and its recorded melting point value.
observable: melting point

COc1cc2ncc(C#N)c(Nc3cc(C)c(C)cc3N)c2cc1OC 260 to 262 °C
CSC1=NCCN1C(=O)c1cccnc1Cl 100 to 102 °C
C=CCOc1c(Cl)cc(-c2ccc(=O)[nH]n2)cc1Cl 214 to 215 °C
S=C1CN=C(c2ccccc2Cl)c2cc(CCc3ccccc3)sc2N1 175 to 176 °C
CC(C)(C)c1cc(-c2cn3ccsc3n2)cc(C(C)(C)C)c1O 184 to 185 °C

###

Each entry below lists one item and its recorded melting point value.
observable: melting point

compound	observable	reported
COC(=O)Cc1c(C)nc(C)nc1Cl	melting point	53 to 54 °C
CC1=NCC2CC(=O)N(c3ccccc3)c3cc(Cl)ccc3N12 (stereo not given)	melting point	248 to 251 °C
O=C(c1cccc(N2CC(=O)N(S(=O)(=O)c3ccc(Cl)cc3)C2=O)c1)N1CCOCC1	melting point	248 to 253 °C
O=C1C2CCCC2Nc2ccccc2N1Cc1ccccc1 (stereo not given)	melting point	172 to 173 °C
CC(C)(C)c1ccc(CN(Cc2cccc(OCC(=O)O)c2)S(=O)(=O)c2cccnc2)cc1	melting point	159 to 160 °C

###

compound	melting point
CCOC(=O)CCCCCCC(=O)c1ccc2cc(OC)ccc2c1	77 to 78 °C
COc1cc(-n2nnn(C)c2=O)c(Cl)cc1Cl	80 to 81 °C
CC(C)(C)C(=O)c1c[nH]c2ncc(-c3cccc(N4CC5(COC5)C4)c3)nc12	260 to 262 °C
CC(CO)N=C(c1ccccc1)c1cc(Cl)ccc1NC(=O)CN (stereo not given)	168 to 172 °C
Nc1sc2c(c1C(=O)c1ccccc1)CCN(C(=O)OCc1ccccc1)C2	138 to 140 °C
CCc1cnc(C)c(C(=O)O)c1	218 to 220 °C
FC(F)(F)c1cccc(NC2CCN(c3ccc(Cl)nn3)CC2)c1	118 °C
CCC(Oc1ccccc1Br)C(=O)OC1CC(O)C=C2C=CC(C)C(CCC3CC(O)CC(=O)O3)C21 (mixture of isomers)	160 to 162 °C
CN(C1CCS(=O)(=O)CC1)S(=O)(=O)c1ccc(Nc2ccnc(Nc3ccc(F)cc3)n2)cc1	252 °C
CCCc1c(OCCOCCC(=O)OC)ccc(C(C)=O)c1O	48 to 50 °C
CCCCCCCCCCCC(=O)N[C@H](CC(=O)c1ccc2ccccc2c1)C(=O)OCC	75 to 76 °C
COc1cc(C(=O)NS(=O)(=O)c2ccccc2C)ccc1Cc1cn(C)c2ccc(NC(=O)NC3CCCC3)cc12	212 to 215 °C
CC1(C)OC(=C(C#N)C#N)C(C#N)=C1c1ccc(N=[N+]=[N-])cc1	184 °C
COc1cc2c(cc1OC)C(C=NO)c1ccccc1CC2 (stereo not given)	176 to 177 °C
CN(C)CCOc1ccc2ccc(NC(=O)c3ccccc3)nc2n1	109 °C
CCCCCCCCCC(=O)c1ccc(OCc2ccc(C=C3SC(=S)NC3=O)cc2)c(CCC)c1O	188 °C
CN(C)c1cc2c(cc1-c1ccc3cc(C=C4SC(=S)N(CC(=O)O)C4=O)ccc3c1)C(C)(C)CCC2(C)C	194 to 196 °C
Cc1ccccc1Nc1nc2ccc(CC(=O)O)cc2o1	199 to 200 °C
Cc1ccc(-c2occc2C#N)cc1	66 °C
O=c1[nH]c2cc(F)c([N+](=O)[O-])c(Br)c2[nH]c1=O	320 to 325 °C

###

Each entry below lists one item and its recorded melting point value.
observable: melting point

compound	reported
O=C(O)C1=C(SCc2ccccc2)CCC1	233 °C
Cc1nn(-c2ccccn2)cc1CO	116 to 117 °C
CCOC(=O)CNC(=O)[C@H](CC(C)C)NC(=O)[C@@H]1CCCN1C(=O)OCc1ccccc1	149 to 150 °C
CC(C)(Cl)Cn1ncc(Cl)c(Cl)c1=O	61 to 66 °C
Clc1cccc(-c2nc(-c3ccc4c(c3)OCO4)c(-c3ccc4c(c3)OCO4)[nH]2)c1Cl	198 °C
CCOC(=O)C(Cc1c[nH]c2cc(Cl)cc(Cl)c12)=NO	175 to 176 °C
CCCCCCCC(=O)N1CCc2nnc(NN)cc2C1	164 to 166 °C
Cc1nc2ccc3ccc(CNc4ccc5c(c4)CN([C@@H](CCC(=O)O)C(=O)N[C@@H](Cc4ccccc4)C(=O)O)C5=O)cc3c2c(=O)[nH]1	180 °C
O=C(O)CCc1cccc(CNC(=O)C2Cc3ccccc3N2S(=O)(=O)c2ccc(-c3cccc(C(F)(F)F)c3)cc2)c1 (configuration not stated)	135 °C
N#CCS(=O)(=O)CC(=O)O	104 to 105 °C
CC1(C)OC(=S)Nc2ccc(-c3ccc(C#N)o3)cc21	200 °C
O=C(c1ccc(F)cc1)N1CCC[C@H](c2nc(-c3ccncc3)no2)C1	113 to 115 °C
COc1ccc2[nH]c3c(c2c1)C1C(=O)NC(=O)C1C(C(=O)OCc1ccccc1)C3 (configuration not stated)	179 to 181 °C
Cc1ccc(C(=O)C=Cc2ccccc2)c(C)c1	68 °C
CCN1CCN(c2nc(-c3ccc(O)cc3)cc3ccccc23)CC1	204 to 206 °C
CC(C)n1nnc2c(NCc3ccccc3O)nc(N[C@H]3CC[C@H](N)CC3)nc21	120 to 123 °C
Cc1c(C(=O)c2cccc(Cl)c2Cl)c2cccc(Br)c2n1CCCCl	139 °C
O=C(O)N1C=CC=NC=C1	238 to 240 °C
CN(C)CCN(C(N)=O)c1cnccn1	105 to 108 °C
Nc1cccc(-n2nnnc2S)c1	205 °C
O=c1ccc2c(-c3ccccc3)cc(N3CCN(Cc4ccccc4)CC3)n2cc1	157 °C
Cc1c2c3c(ccc2nn1C)CCC3=O	157 to 159 °C

###

observable: melting point

compound	reported
N[C@@H]1CCc2c(ccc(OCc3ccccc3)c2CO)[C@H]1O (relative stereo)	148 to 150 °C
CCCc1c(OCCCCc2ccc3cc(OC)c(OC)cc3c2)ccc(C(=O)O)c1O	147 to 148 °C
CS(=O)(=O)N(c1ccccc1)C1CCN(Cc2ccccc2)CC1	125 °C
COc1ccc(C(=O)c2cccc(C(F)(F)F)c2)cc1	62.5 to 63.5 °C
O=C(O)c1cc2cc(Cl)c(Cl)cc2nc1N[C@H](Cc1c[nH]c2ccccc12)C(=O)O	> 250 °C

###

observable: melting point

compound	observable	reported
O=C(Nc1ccc(-n2nc(C(F)(F)F)cc2C(F)(F)F)cc1)C1=CCCC1	melting point	174 to 175 °C
Nc1cc(OCc2ccccc2)cc(OCc2ccccc2)c1	melting point	77 to 80 °C
O=C(NCc1ccccc1)c1ccc(C=CC(=O)N2CCc3c([nH]c4ccccc34)C2c2ccc3c(c2)OCO3)cc1 (stereo not given)	melting point	203 °C
CCCCCCCN(Cc1ccc(CCC(C)C)cc1)C(=O)Nc1c(OC)ccc2ncccc12	melting point	86 to 87 °C
COc1cccc(C(=O)c2cccc(F)c2)c1	melting point	56 to 67 °C

###

observable: melting point

molecule	reported
Cc1oc(-c2ccccc2)nc1COc1ccc(Cn2cc(CCC(=O)O)c(-c3ccccc3)n2)cc1	179 to 180 °C
CC1(C)CC(=O)Nc2ccc([N+](=O)[O-])cc21	202 to 204 °C
CC(=O)N1c2cc(Cl)cc(Cl)c2C(=O)CC1C(=O)O (stereo not given)	212 to 213 °C
CC(C)(C)OC(=O)NC(=S)NC(=O)OC(C)(C)C	124 to 127 °C
CCCCc1ncc(CCN(C)C(Cc2ccccc2)C(=O)O)n1Cc1ccccc1Cl (stereo not given)	59 to 61 °C

###

compound	melting point
N[C@@H](Cc1ccc(C(F)(F)F)c(F)c1)[C@H](O)c1ccc(F)cc1 (racemic)	86 to 87 °C
N#CCN1CCN(c2n[nH]c3ccccc23)CC1	121 to 123 °C
CN1C(=O)CC[C@]2(C)c3ccc(C(=O)c4ccccc4)cc3CC[C@@H]12	116 °C
CCn1c(C)c(C(=O)c2ccc(C)c3ccccc23)c2ccccc21	136 to 137 °C
C=CCOc1cc2c(cc1CC=C)N(CC=C(C)C)C(=O)CC2	86 to 88 °C

###

Each entry below lists one item and its recorded melting point value.
observable: melting point

compound	reported
O=C(O)C1CCc2c(c3cc(F)ccc3n2C(=O)c2ccccc2)C1 (stereo unspecified)	218 to 220 °C
Cc1ccccc1CCC(=O)NCc1ncc(C(F)(F)F)cc1Cl	152 to 153 °C
COc1nscc1C#N	60 to 62 °C
CCOC(=O)Nc1ccc2c3c(n(CCCN(C)C)c2c1)CCCCCC3	119 to 123 °C
Fc1ccc(-c2n[nH]cc2-c2ccnc(NC3CC3)n2)cc1	203 to 204 °C
COCOCc1nc(-c2ccccc2)oc1CCc1ccc(O)cc1	102 to 103 °C
